Measured values drawn from paper PMC7756582 for this set.

assay overview: Cytotoxicity: inhibition of CD4+ T-cell (CEM) proliferation
Format: cell-based
conditions used: human, CEM/0 cells (CD4+ T-cells), 50 % cytostatic concentration, mean±SD, n=2-3
parameter: CC50 (µM)
Note: unit µM is implicit; provide only the numeric part.

Exam item: Recorded CC50 of CCCCOP(=O)(OCc1ccc(OC(=O)CCCC)cc1)OP(=O)(O)OP(=O)(O)OCC1C=CC(n2cc(C)c(=O)[nH]c2=O)O1 (stereo not shown) , please.
Marked response: 64

Exam item: I am curious: what CC50 value has been reported for CCCCCCCCCCCCCCCCCCOP(=O)(OCc1ccc(OC(=O)CCCC)cc1)OP(=O)(O)OP(=O)(O)OCC1C=CC(n2cc(C)c(=O)[nH]c2=O)O1 (stereo not shown) ?
Marked response: 13

Exam item: I am curious: what CC50 value has been reported for CCCCCCCCCCCCCCCC(=O)Oc1ccc(COP(=O)(OCCCC)OP(=O)(O)OP(=O)(O)OCC2C=CC(n3cc(C)c(=O)[nH]c3=O)O2)cc1 (stereo not shown) ?
Marked response: 21
